Experimental target: HIV-1 Env of isolate MGRM-C-007 (subtype C) (HIV-1)
Protocol description: cell-based or functional assay
Could you please report measured IC50 (µg/mL), pseudovirus neutralization for the items listed next?

input: Give the value of IC50 (µg/mL), pseudovirus neutralization reported for the following: PGT-126 (antibody, V domains shown) VH: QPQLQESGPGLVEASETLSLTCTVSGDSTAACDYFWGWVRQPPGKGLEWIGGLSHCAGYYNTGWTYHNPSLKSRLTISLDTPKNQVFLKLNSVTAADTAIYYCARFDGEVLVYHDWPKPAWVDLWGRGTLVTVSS VL: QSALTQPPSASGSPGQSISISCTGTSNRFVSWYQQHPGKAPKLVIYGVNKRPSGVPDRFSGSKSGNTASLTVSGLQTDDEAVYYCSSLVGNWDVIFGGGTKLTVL
output: 25.3 µg/mL

input: Let me know recorded IC50 (µg/mL), pseudovirus neutralization for PGT-127 (antibody, V domains shown) VH: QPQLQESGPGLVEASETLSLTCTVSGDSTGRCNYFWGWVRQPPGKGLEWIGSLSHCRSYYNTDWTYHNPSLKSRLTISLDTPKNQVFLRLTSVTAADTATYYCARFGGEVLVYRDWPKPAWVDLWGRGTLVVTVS VL: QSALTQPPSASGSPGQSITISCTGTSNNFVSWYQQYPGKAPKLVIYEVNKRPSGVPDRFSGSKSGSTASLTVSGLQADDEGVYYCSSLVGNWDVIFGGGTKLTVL , thanks.
output: > 50 µg/mL

input: // Input: PGT-123 (antibody, V domains shown) VH: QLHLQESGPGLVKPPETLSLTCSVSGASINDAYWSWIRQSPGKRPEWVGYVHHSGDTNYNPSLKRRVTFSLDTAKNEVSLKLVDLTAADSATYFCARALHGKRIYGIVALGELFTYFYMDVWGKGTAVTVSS VL: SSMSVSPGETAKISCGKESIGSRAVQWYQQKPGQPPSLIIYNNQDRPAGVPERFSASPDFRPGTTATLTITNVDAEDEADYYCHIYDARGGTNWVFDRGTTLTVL . Output its IC50 (µg/mL), pseudovirus neutralization only.
output: 0.547 µg/mL

input: Identify IC50 (µg/mL), pseudovirus neutralization associated with the binder PGT-125 (antibody, V domains shown) VH: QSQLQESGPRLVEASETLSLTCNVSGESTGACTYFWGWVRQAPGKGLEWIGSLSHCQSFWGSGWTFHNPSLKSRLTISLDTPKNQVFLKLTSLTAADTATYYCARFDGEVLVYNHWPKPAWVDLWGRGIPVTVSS VL: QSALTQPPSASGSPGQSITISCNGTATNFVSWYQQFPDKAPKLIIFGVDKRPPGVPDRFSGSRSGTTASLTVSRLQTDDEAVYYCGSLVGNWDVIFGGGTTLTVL
output: > 50 µg/mL
